Experiment: Stability of alkylated amino acid in cleaning composition 1 by HPLC-UV peak area vs t=0
Format: physicochemical
Conditions: 8 weeks, 70° F. (21° C.), HPLC-UV peak area relative to t=0
measure: % at t = 8 w (70° F.) (%)
Numbers only here, please. The scale is %.

# count of solved cases: 2
{"columns": ["molecule", "unitOfMeasure", "numericResult"],
 "data": [
  ["CCCCCCCCCCCC(=O)NC(CCCNC(=N)N)C(=O)OCC (stereo not drawn)", "%", 71],
  ["CCCCCCCCCCCCNC(=O)C(C)CC(C)C (stereo not drawn)", "%", 100]
]}

Turning to the following molecule.
Q) Look up % at t = 8 w (70° F.) of CCCCCCCCCCCC(=O)NC(CCCCN)C(=O)OCC (stereo not drawn) and report it.
A) 79

----------
// reported % at t = 8 w (70° F.) per item
Experiment: Stability of alkylated amino acid in cleaning composition 1 by HPLC-UV peak area vs t=0
Type: physicochemical
Conditions: 8 weeks, 70° F. (21° C.), HPLC-UV peak area relative to t=0
Numbers only here, please. The scale is %.

# count of solved cases: 2
{"columns": ["compound", "unitOfMeasure", "% at t = 8 w (70° F.)"],
 "data": [
  ["CCCCCCCCCCCCNC(Cc1c[nH]c2ccccc12)C(=O)OCC (stereo not drawn)", "%", 87],
  ["CCCCCCCCCCCCNCCCCC(N)C(=O)O (stereo not drawn)", "%", 150]
]}

Q) Look up % at t = 8 w (70° F.) of CCCCCCCCCCCCOC(=O)C(N)Cc1c[nH]c2ccccc12 (stereo not drawn) and report it.
A) 73

----------
Assay: Stability of alkylated amino acid in cleaning composition 1 by HPLC-UV peak area vs t=0
Type: physicochemical
Details: 8 weeks, 100° F. (38° C.), HPLC-UV peak area relative to t=0
Threshold 40%: % at t = 8 w (100° F.) strictly smaller gives met, otherwise not met.

Take a look at these entries with their results.
{"columns": ["compound", "label"],
 "data": [
  ["CCCCCCCCCCCCNC(=O)C(N)Cc1ccc(O)cc1 (stereo not shown)", "not met"],
  ["CCCCCCCCCCCCNC(=O)C(N)CCCCN (stereo not shown)", "not met"]
]}

Q) Is the reported % at t = 8 w (100° F.) for CCCCCCCCCCCCNC(=O)C(N)Cc1c[nH]c2ccccc12 (stereo not shown) strictly below 40%?
A) not met

Q) Is the reported % at t = 8 w (100° F.) for CCCCCCCCCCCC(=O)NC(CCCNC(=N)N)C(=O)OCC (stereo not shown) strictly below 40%?
A) met

Q) Is the reported % at t = 8 w (100° F.) for CCCCCCCCCCCCOC(=O)C(N)CC(C)C (stereo not shown) strictly below 40%?
A) met

Q) Is the reported % at t = 8 w (100° F.) for `CCCCCCCCCCCCOC(=O)CN` strictly below 40%?
A) met

Q) Is the reported % at t = 8 w (100° F.) for CCCCCCCCCCCC(=O)NCCCCC(N)C(=O)OCC (stereo not shown) strictly below 40%?
A) met

Q) Is the reported % at t = 8 w (100° F.) for CCCCCCCCCCCCNC(=O)C(C)CC(C)C (stereo not shown) strictly below 40%?
A) not met

Q) Is the reported % at t = 8 w (100° F.) for `CCCCCCCCCCCCNCC(=O)OCC` strictly below 40%?
A) met

Q) Is the reported % at t = 8 w (100° F.) for CCCCCCCCCCCCNC(Cc1c[nH]c2ccccc12)C(=O)OCC (stereo not shown) strictly below 40%?
A) met
